Reference for the values: ChEMBL document CHEMBL3286113

experiment: Tmax in female rat at 5 mg/kg, po; type: ADME, organism-based; design: dose 5 mg/kg, route oral; settings: in vivo
parameter_measured: Tmax
Mention the unit after the number when you answer.

Would you kindly share the measured Tmax for O=C1C=CN(c2c(F)cc(N3C[C@H](CNc4ccon4)OC3=O)c(F)c2F)CC1 ?
40.2 min

----------
assay: Cmax in female rat at 15 mg/kg, po; type: ADME, organism-based; set-up: dose 15 mg/kg, route oral; details: in vivo
parameter_measured: Cmax (ng/mL)
Dear colleague, please return just the value in ng/mL, with no unit written.

Would you kindly share the measured Cmax for O=C1C=CN(c2c(F)cc(N3C[C@H](CNc4ccon4)OC3=O)c(F)c2F)CC1 ?
17200
